# system tested: rat µ opioid receptor (rat, UniProt P33535 1-398)
# Sequence (P33535 whole entry): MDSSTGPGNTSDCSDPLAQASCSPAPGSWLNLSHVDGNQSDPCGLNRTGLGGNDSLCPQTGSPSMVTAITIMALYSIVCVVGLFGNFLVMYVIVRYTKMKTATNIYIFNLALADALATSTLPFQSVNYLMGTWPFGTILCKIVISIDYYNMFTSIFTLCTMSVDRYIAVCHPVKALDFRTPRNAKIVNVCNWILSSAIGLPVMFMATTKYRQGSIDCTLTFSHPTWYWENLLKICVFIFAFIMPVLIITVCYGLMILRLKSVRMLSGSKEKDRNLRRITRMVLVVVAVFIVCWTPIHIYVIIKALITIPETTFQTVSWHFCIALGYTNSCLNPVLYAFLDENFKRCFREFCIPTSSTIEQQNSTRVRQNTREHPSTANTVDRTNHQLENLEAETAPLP
# assay protocol: cell-based or functional assay
Bridge positions count the residues as written; N and C are the ends. Square brackets hold non-standard residues; d marks the D form. Ends that are not written are not given here. * marks the point of attachment. NH(3,5-(CF3)2-benzyl) = FC(F)(F)c1cc(CN*)cc(C(F)(F)F)c1; OBzl(3,5-(CF3)2) = FC(F)(F)c1cc(CO*)cc(C(F)(F)F)c1; OBn(CF3)2 = C-terminal Bn(CF3)2 ester; Nle = CCCC[C@H](N)C(=O)O; Aib = CC(C)(N)C(=O)O; OBn = c1ccc(CO*)cc1
property: GTP binding rMOR EC50 (µM)
Please give a number only; it is taken to be in µM.

Reference set (3 entries):
Y[dA]GFFPLW-OBn [TyrDAlaGlyPhePheProLeuTrpOBn (TY014)]; 0.076
Y[dA]GF[dF]PLW-{OBzl(3,5-(CF3)2)} [TyrDAlaGlyPheDPheProLeuTrpOBn(CF3)2 (TY007)]; 0.345
Y[dA]GFM[Aib]LW-{OBn(CF3)2} [TyrDAlaGlyPheMetAibLeuTrpOBn(CF3)2 (TY022)]; 0.1

Could you now look at the following binder, please?
Task item: Need GTP binding rMOR EC50 of Y[dC]GF[Nle]PCW-{NH(3,5-(CF3)2-benzyl)} (disulfide 2-7, also called [D-Cys2, Cys7]TY027) [Tyr[DCysGlyPheNleProCys]TrpNHBn(CF3)2 (TY035)] , thanks.
Reply: 0.036
